- tested.target: T1, human PD-1 (soluble antigen of the MSD assay, b-PD-1 monomer) (human, UniProt Q15116 25-170, limits assumed, biotinylated (b-PD-1), site not stated)
- T1 construct: The antigen format of the 'avid' measurement is not described
- T1 sequence (Q15116 25-170 limits assumed): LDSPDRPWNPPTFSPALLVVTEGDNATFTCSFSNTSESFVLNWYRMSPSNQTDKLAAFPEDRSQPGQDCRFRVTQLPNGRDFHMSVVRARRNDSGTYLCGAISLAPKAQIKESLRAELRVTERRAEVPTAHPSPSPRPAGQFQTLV
- experiment: MSD solution equilibrium titration, monovalent KD
- Procedure: Equilibrium affinity measurements are performed as previously described (Estep, P., et al., MAbs, 2013. 5(2): p. 270-8). […] Antigen captured on a plate is detected with 250 ng/mL sulfotag-labeled streptavidin in PBSF by incubation on the plate for 3 min. The plates are washed three times with wash buffer and are then read on the MSD Sector Imager 2400 instrument using 1× Read Buffer T with surfactant. […]
Record form. Attribute: Kd. Fill in for each entry.
Record the result as number plus unit.

Record summary for Antibody A, IgG1 format expressed in yeast (antibody, V domains shown, Tested in IgG1 format, expressed in yeast) VH: QVQLVQSGAEVKKPGASVKVSCKASGYTFTSYYMHWVRQAPGQGLEWMGIINPSGGSTSYAQKFQGRVTMTRDTSTSTVYMELSSLRSEDTAVYYCAKEGVADGYGLVDVWGQGTMVTISS VL: EIVLTQSPATLSLSPGERATLSCRASQSVSSYLAWYQQKPGQAPRLLIYDASKRATGIPARFSGSGSGTDFTLTISSLEPEDFAVYYCDQRNNWPLTFGGGTKVEIK : reported Kd = 4.9 nM

Record summary for Antibody F, IgG1 format expressed in yeast (antibody, V domains shown, Tested in IgG1 format, expressed in yeast) VH: QVQLVQSGAEVKKPGASVKVSCKASGYTFSAYYMHWVRQAPGQGLEWMGIINPDGGSTGYAQKFQGRVTMTRDTSTSTVYMELSSLRSEDTAVYYCAKEGVADGYGLVDVWGQGTMVTVSS VL: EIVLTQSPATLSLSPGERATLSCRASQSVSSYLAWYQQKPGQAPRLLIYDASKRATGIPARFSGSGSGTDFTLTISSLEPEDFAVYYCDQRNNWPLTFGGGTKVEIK : reported Kd = 0.17 nM

Record summary for Antibody C, IgG1 format expressed in yeast (antibody, V domains shown, Tested in IgG1 format, expressed in yeast) VH: QVQLVQSGAEVKKPGASVKVSCKASGYTFTAQYMHWVRQAPGQGLEWMGIINPSGGETGYAQKFQGRVTMTRDTSTSTVYMELSSLRSEDTAVYYCAKEGVADGYGLVDVWGQGTMVTVSS VL: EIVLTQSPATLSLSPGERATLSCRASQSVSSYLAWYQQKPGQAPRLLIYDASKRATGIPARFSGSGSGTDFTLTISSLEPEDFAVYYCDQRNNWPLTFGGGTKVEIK : reported Kd = 0.12 nM
